B1: Hairpin Ribozyme (parent)
chain: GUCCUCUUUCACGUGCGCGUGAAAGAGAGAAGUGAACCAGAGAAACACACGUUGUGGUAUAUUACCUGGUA

Variants of: B1
Assay: self-cleavage, relative activity (ratio to wild type); higher = more cleavage; co-transcriptional
attribute measured: self-cleavage
Respond with the number and no other words.

Check out these entries, answers already filled in.
GUCCUCUUUCACGUGGGCGUGAAAGAGAGAAGUGAACCAGAGAAACACACGUUGUGGUAUAUUACCUGUUA [C16G G69U] = 0.196
GUCCUCUUUCACGUGCGCGUGAAAGAGAGUAGUGAAUCAGAGAAACACACGUUGUGGUAUAUUACCUGGUA [A30U C37U] = 0.206
GUCCUCUUUCACGUGCGCGUGAAGGAGAGAAGUGAACCAGAGAAACAGACGUUGUGGUAUAUUACCUGGUA [A24G C48G] = 0.181

Given item GUCCUCUUUCACGUUCGCGUGAAAGAGAGAAGUGAACCAGAGAAACACACGUUGUGGUAAAUUACCUGGUA [G15U U60A] , the value recorded as its self-cleavage is 0.932

Given item GUGAUCUUUCACGUGCGCGUGAAAGAGAGAAGUGAACCAGAGAAACACACGUUGUGGUAUAUUACCUGGUA [C3G C4A] , the value recorded as its self-cleavage is 0.185

Given item GUCCUCUUUCACGUGCGCGUGAAAGAGAGAAGUGAACCAGAGAAAGACAAGUUGUGGUAUAUUACCUGGUA [C46G C50A] , the value recorded as its self-cleavage is 0.0593
